# test.target: Human Factor B (human, UniProt P00751 26-764)
# Sequence (P00751 26-764 limits assumed): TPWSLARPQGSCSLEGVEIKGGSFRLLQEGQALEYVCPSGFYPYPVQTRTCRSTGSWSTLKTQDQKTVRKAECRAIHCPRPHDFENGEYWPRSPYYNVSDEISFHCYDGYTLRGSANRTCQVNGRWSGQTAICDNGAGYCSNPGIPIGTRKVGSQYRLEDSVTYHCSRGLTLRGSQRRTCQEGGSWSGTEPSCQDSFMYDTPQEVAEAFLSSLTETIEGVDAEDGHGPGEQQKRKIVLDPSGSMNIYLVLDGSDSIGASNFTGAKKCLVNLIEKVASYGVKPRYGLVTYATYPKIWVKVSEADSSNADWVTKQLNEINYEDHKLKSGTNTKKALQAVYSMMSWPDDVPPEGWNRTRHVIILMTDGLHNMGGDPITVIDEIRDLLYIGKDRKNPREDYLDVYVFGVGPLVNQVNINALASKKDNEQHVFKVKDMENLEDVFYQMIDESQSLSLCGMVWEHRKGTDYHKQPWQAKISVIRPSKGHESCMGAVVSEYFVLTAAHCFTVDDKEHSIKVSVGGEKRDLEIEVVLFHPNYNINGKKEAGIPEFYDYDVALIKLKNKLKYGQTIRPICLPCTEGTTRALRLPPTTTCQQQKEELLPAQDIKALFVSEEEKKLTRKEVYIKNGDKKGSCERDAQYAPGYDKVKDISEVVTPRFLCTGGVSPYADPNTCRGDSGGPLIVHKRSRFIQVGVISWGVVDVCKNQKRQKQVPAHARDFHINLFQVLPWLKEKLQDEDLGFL
# procedure.details: cell-based or functional assay
Entries annotated with measured fB Cleavage EC50
Give just the numeric value; nM need not be written.

binder="chymase C22S/S189T/A190S/A226R (enzyme) IIGGTESKPHSRPYMAYLEIVTSNGPSKFCGGFLIRRNFVLTAAHCAGRSITVTLGAHNITEEEDTWQKLEVIKQFRHPKYNTSTLHHDIMLLKLKEKASLTLAVGTLPFPSQFNFVPPGRMCRVAGWGRTGVLKPGSDTLQEVKLRLMDPQACSHFRDFDHNLQLCVGNPRKTKTSFKGDSGGPLLCAGVAQGIVSYGRSDAKPPRVFTRISHYRPWINQILQAN" endpoint_result=605

# next binder below
Q: Report fB Cleavage EC50 for chymase C22S/L99H/F173Y/K192R/S218L/A226R (enzyme) IIGGTESKPHSRPYMAYLEIVTSNGPSKFCGGFLIRRNFVLTAAHCAGRSITVTLGAHNITEEEDTWQKLEVIKQFRHPKYNTSTHHHDIMLLKLKEKASLTLAVGTLPFPSQFNFVPPGRMCRVAGWGRTGVLKPGSDTLQEVKLRLMDPQACSHYRDFDHNLQLCVGNPRKTKSAFRGDSGGPLLCAGVAQGIVSYGRLDAKPPRVFTRISHYRPWINQILQAN please.
Ans: 1150
